Listed binders paired with reported koff
biological target: T1, human PD-L1 antigen (Beijing Sino Biological Inc, Catalog No. #10084-H08H-100) (human, UniProt Q9NZQ7 19-239); test: BLI (ForteBIO Octet), antibody captured on sensor, human PD-L1 in solution
T1 construct: Bought antigen; also called the antigen
T1 sequence (Q9NZQ7 19-239 limits assumed): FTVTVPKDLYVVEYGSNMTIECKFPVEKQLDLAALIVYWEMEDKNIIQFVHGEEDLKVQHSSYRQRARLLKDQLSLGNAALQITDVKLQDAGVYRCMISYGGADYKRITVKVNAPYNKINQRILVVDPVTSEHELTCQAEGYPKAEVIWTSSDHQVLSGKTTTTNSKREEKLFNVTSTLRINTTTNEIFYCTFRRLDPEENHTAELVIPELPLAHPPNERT
Numbers only here, please. The scale is s⁻¹.

# Binder, koff [s⁻¹]
rows = [
    ("Antibody I-HX-1 (antibody, human IgG4 S228P, kappa, V domains shown, expressed in HEK 293 or CHO cells) VH: VQLVQSGAEVKKPGASVKVSCKASGYSYYFYWMHWVRQAPGQGLEWMGAIYHINSDTSYNQKFKGRVTITAVTSASTAYMELSSLRSEDTAVYYCTRWGEGYYHAMNHWGQGTLVTVSS VL: DIQMTQSPSSLSASVGDRVTITCRASQDLGNTLNWLQQKPGKAIKRLIYASSSLDSGVPKRFSGSRSGSDYSLTISSLQPEDFATYYCLYYASTPFTFGQGTKLEIKR", "4.1e-07"),
    ("Antibody I-HX-4 (antibody, human IgG4 S228P, kappa, V domains shown) VH: VQLVQSGAEVKKPGASVKVSCKASGYTYNFYWMHWVRQAPGQGLEWMGAIYHVQSDTSYNQKFKGRVTITAVTSASTAYMELSSLRSEDTAVYYCTHWLEVYFHGMDHWGQGTLVTVSS VL: DIQMTQSPSSLSASVGDRVTITCRASQEIGQTLNWLQQKPGKAIKRLIYVTSSLDSGVPKRFSGSRSGSDYSLTISSLQPEDFATYYCLYFASSPFTFGQGTKLEIKR", "8.95e-07"),
    ("Antibody I-HX-6 (antibody, human IgG4 S228P, kappa, V domains shown) VH: VQLVQSGAEVKKPGASVKVSCKASGYSFSSYWMHWVRQAPGQGLEWMGAIYPGQSETSYNQKFKGRVTITAVTSASTAYMELSSLRSEDTAVYYCTHWIDGYFHVMDHWGQGTLVTVSS VL: DIQMTQSPSSLSASVGDRVTITCRASQEIGQTLNWLQQKPGKAIKRLIYGTSSLDSGVPKRFSGSRSGSDYSLTISSLQPEDFATYYCLNYISSPFTFGQGTKLEIKR", "4.29e-07"),
]

Query binder follows.
Task: Could you share which koff value was measured for Antibody I-HX-3 (antibody, human IgG4 S228P, kappa, V domains shown) VH: VQLVQSGAEVKKPGASVKVSCKASGYTYYFYWMHWVRQAPGQGLEWMGAIYHGNSETSYNQKFKGRVTITAVTSASTAYMELSSLRSEDTAVYYCTHWADAYFHGMNHWGQGTLVTVSS VL: DIQMTQSPSSLSASVGDRVTITCRASQNIANTLNWLQQKPGKAIKRLIYVSSSLDSGVPKRFSGSRSGSDYSLTISSLQPEDFATYYCLYYASYFFTFGQGTKLEIKR ?
Result: 1.92e-06
